This collection of values is drawn from patent US6203835A.

# protocol.text: Intravenous LD50 in mice
# run.conditions: mouse, in vivo
Where a name gives a salt, the structure may show the parent alone.
measurement.kind: LD50 (mg/kg)

1. CC(C)CC(O)C(=O)O (racemic) [Na-salt of d,l-2-hydroxy-4-methyl]    650

====

# protocol.text: in vivo
# run.conditions: mouse, iv
Counter-ions that a name gives are not always drawn.
measurement.kind: LD50 (mg/kg)

1) CC(C)C(O)C(=O)O (racemic) [Na-salt of d,l-2-hydroxy-3-methyl]    1080
